# assay.procedure: growth suppression of PTEN-deleted HCT116, pilot screen, cell-based, HCT116 clonal line, CellTiter-Glo (AID 824);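 note: 0% = 20 µM Hyamine control and 100% = vehicle cell control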
# condition.info: 60 h, at 10 µM
Records with an inconclusive call do not appear. Activity calls are given as the source filed them.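 Rule for the calls: active = viability at or below 27.92% in each of two runs, the all-compound median minus 4 SD; inconclusive = no clear call, values can overlap the other calls; inactive = the rest.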
Please reply with one of these outcomes: active, inactive

- molecule: "c1ccc(Cn2nnc3c(N4CCOCC4)ncnc32)cc1"
  assigned.category: "inactive"
- molecule: "COCCCNC(=O)c1ccccc1Oc1ccccc1"
  assigned.category: "inactive"
- molecule: "CCN1CCc2c(sc(NC(=O)c3ccc(S(=O)(=O)N4CCOCC4)cc3)c2C(N)=O)C1"
  assigned.category: "inactive"

Problem: # fetch the recorded call for COc1ccc2[nH]cc(CCNC(=O)C3CCCNC3=O)c2c1 (centres undefined) here
Result: inactive

Problem: Lookup `COc1ccc(C(=O)N2CCN(C(=O)c3ccco3)CC2)cc1`
Result: inactive

Problem: Lookup Cc1cc(C2N=C(N)Nc3nc4ccccc4n32)c(C)n1-c1ccccc1Cl (centres undefined)
Result: active

Problem: Lookup `COC(=O)C1=C(C)N(C)C(C)=C(C(=O)OC)C1c1ccccc1C`
Result: inactive

Problem: Lookup `COc1ccccc1N(CC(=O)N1CCCCCC1)S(C)(=O)=O`
Result: inactive

Problem: Lookup `Cc1ccc(-c2n[nH]c(=S)n2C)cc1`
Result: inactive

Problem: Lookup COc1ccc(C(c2sc3ncnn3c2O)N2CCN(c3ccccc3F)CC2)cc1OC (centres undefined)
Result: inactive

Problem: Lookup `CCOC(=O)Cn1c(=NC(=O)CSC(C)=O)sc2ccccc21`
Result: inactive

Problem: Lookup COc1ccccc1N1C(=O)C2CC=CC(C)C2C1=O (centres undefined)
Result: inactive

Problem: Lookup CCOC(=O)C1CCCN(Cc2nc(N)nc(Nc3ccccc3OC)n2)C1 (centres undefined)
Result: inactive

Problem: Lookup O=C1C2ON(c3ccccc3)C(c3ccncc3)C2C(=O)N1c1ccc(N2CCOCC2)cc1 (centres undefined)
Result: inactive

Problem: Lookup `COCCNC(=O)CS(=O)(=O)Cc1nc(-c2ccc(C)cc2)oc1C`
Result: inactive

Problem: Lookup `CSc1nc(C)cc(SCCO)n1`
Result: inactive

Problem: Lookup `Cc1ccoc1C(=O)NCc1occc1C(=O)O`
Result: inactive

Problem: Lookup `CSc1nnc(-c2ccco2)n1-c1ccccc1`
Result: inactive

Problem: Lookup CCOc1ccc(C(=O)CCNC(Cc2cnc[nH]2)C(=O)O)cc1 (centres undefined)
Result: inactive

---

# assay.procedure: viability gain of MRP-1-high H69AR cells under doxorubicin, pilot screen, MRP-1 activator project, CellTiter-Glo, duplicate (AID 807);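 note: compound pretreatment 18-22 h then 72 h combined with doxorubicin; 0% = doxorubicin alone and 100% = vehicle without doxorubicin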
# condition.info: H69AR viability with doxorubicin, CellTiter-Glo luminescence; at 10 µM; stronger effect = higher value
measurement.type: viability increase (%)
Kindly provide the numeric value in % only, without the unit symbol.

Take a look at these entries with their results.
- compound: "OCCNCCCCCOc1ccc(F)cc1"
  display.unit: "%"
  viability increase: -1.34
- compound: "COc1ccccc1N1CCN(c2cc(C)nc3nc(C)nn23)CC1"
  display.unit: "%"
  viability increase: -4.75
- compound: "CCn1cc(C(=O)NC2CCCCCC2)c(=O)c2cc(S(=O)(=O)N3CCCCC3)ccc21"
  display.unit: "%"
  viability increase: -8.11
- compound: "Cc1cc(C)nc(NS(=O)(=O)c2ccc(NC(=O)c3ccc4c(c3)OCO4)cc2)n1"
  display.unit: "%"
  viability increase: 5.22

Problem: Which viability increase is reported for this compound? CC(=O)N(CCCN(C)C)CCC(C)CCC=C(C)C (stereo not drawn)
Result: -2.93

Problem: Lookup `O=C(NCCCNC(=O)c1ccco1)c1ccco1`
Result: -2.35

Problem: Lookup `Cc1cccc(-n2ncc3c(N4CCOCC4)ncnc32)c1`
Result: -0.68

Problem: Lookup `Cc1c(C(=O)N2CCN(C(=O)c3ccco3)CC2)sc2nc(-c3ccc(F)cc3)cn12`
Result: -2.53

Problem: Lookup `CC(=O)N1CCc2cc(C(=O)CN3CCCCC3)ccc21`
Result: -2.19
